# Tested on: MDA-MB-231
# measurementNotes: Cytotoxicity against human MDA-MB-231 cells assessed as reduction in cell viability after 72 hrs by MTT assay
# Assay type: functional, cell-based
# conditionParameters: MDA-MB-231, 72 h
measure: pIC50
Quick note: pIC50 values are minus log10 of concentrations in mol/L.

# count of solved cases: 5
{"columns": ["moleculeSmiles", "pIC50"],
 "data": [
  ["CCCCCCCCNc1nc(SCc2ccc(C(F)(F)F)cc2)nc2ccccc12", 4.65],
  ["CCOc1ccc(Nc2nc(SCc3ccc(C(F)(F)F)cc3)nc3ccccc23)cc1", 4.64],
  ["O=[N+]([O-])c1ccc(Nc2nc(SCc3ccc(C(F)(F)F)cc3)nc3ccccc23)cc1", 5.06],
  ["Fc1ccc(Nc2nc(SCc3ccc(C(F)(F)F)cc3)nc3ccccc23)cc1", 4.82],
  ["FC(F)(F)c1ccc(CSc2nc(N3CCCCC3)c3ccccc3n2)cc1", 4.55]
]}

q: Query pIC50 on MDA-MB-231 for FC(F)(F)c1ccc(CSc2nc(Nc3cccc(Br)c3)c3ccccc3n2)cc1
a: 4.66

q: Quick one: CCCCCCNc1nc(SCc2ccc(C(F)(F)F)cc2)nc2ccccc12
a: 4.69

q: Same lookup for FC(F)(F)c1ccc(CSc2nc(Nc3ccc(C(F)(F)F)cc3)c3ccccc3n2)cc1 , please.
a: 5.26

q: Request: FC(F)(F)c1ccc(CSc2nc(Nc3cccc(C(F)(F)F)c3)c3ccccc3n2)cc1
a: 4.95

q: Do the same for O=[N+]([O-])c1cccc(Nc2nc(SCc3ccc(C(F)(F)F)cc3)nc3ccccc23)c1 please
a: 4.50

q: Moving on to FC(F)(F)c1ccc(CSc2nc(Nc3ccccc3)c3ccccc3n2)cc1
a: 4.73

###

# Tested on: MDA-MB-231
# measurementNotes: Cytotoxicity against human MDA-MB-231 cells assessed as reduction in cell viability after 72 hrs by MTT assay
# Type: functional, cell-based
# conditionParameters: MDA-MB-231, 72 h
measure: IC50 (µM)
Give just the number in µM; leave the unit off.

Some entries whose results are on file:
{"columns": ["moleculeSmiles", "target", "measure", "endpointValue"],
 "data": [
  ["FC(F)(F)c1ccc(CSc2nc(Nc3cccc(Cl)c3)c3ccccc3n2)cc1", "MDA-MB-231", "IC50", 18],
  ["COc1cc(Nc2nc(SCc3ccc(C(F)(F)F)cc3)nc3ccccc23)cc(OC)c1", "MDA-MB-231", "IC50", 16.1],
  ["COc1ccc(Nc2nc(SCc3ccc(C(F)(F)F)cc3)nc3ccccc23)cc1OC", "MDA-MB-231", "IC50", 18.9]
]}

q: Which IC50 reading was recorded for the compound Cc1ccccc1Nc1nc(SCc2ccc(C(F)(F)F)cc2)nc2ccccc12 ?
a: 27.1

q: What do you have for COc1ccc(Nc2nc(SCc3ccc(C(F)(F)F)cc3)nc3ccccc23)cc1 ?
a: 15.7

q: Can you check Fc1ccc(Nc2nc(SCc3ccc(C(F)(F)F)cc3)nc3ccccc23)cc1Cl next?
a: 14.5

q: Now the same for FC(F)(F)c1ccc(CSc2nc(Nc3ccc(Cl)cc3)c3ccccc3n2)cc1
a: 15.1

###

# Test system: MDA-MB-231
# measurementNotes: Cytotoxicity against human MDA-MB-231 cells assessed as reduction in cell viability after 72 hrs by MTT assay
# Format: functional, cell-based
# conditionParameters: MDA-MB-231, 72 h
IC50 by entry:

{"columns": ["moleculeSmiles", "IC50"],
 "data": [
  ["FC(F)(F)c1ccc(CSc2nc(Nc3ccccc3C(F)(F)F)c3ccccc3n2)cc1", "> 50 µM"],
  ["CCCCCCCCCCCCCCNc1nc(SCc2ccc(C(F)(F)F)cc2)nc2ccccc12", "> 50 µM"]
]}

Pending molecule:
q: What measured IC50 is associated with Cc1ccc(Nc2nc(SCc3ccc(C(F)(F)F)cc3)nc3ccccc23)cc1 on MDA-MB-231?
a: > 50 µM

Values were extracted from ChEMBL document CHEMBL4393664.
